TGI values for the compounds below.
Test system: SK-OV-3 ovarian
Assay: NCI tumour cell line growth inhibition, 48 h

Q: Would you mind telling me what TGI value was observed for CO[C@@H]1[C@@H](OC2OC(C)C(OC3CC(C)(O)C(OC(=O)CC(C)C)C(C)O3)C(N(C)C)C2O)[C@@H](CC=O)C[C@@H](C)C(=O)/C=C/C2O[C@H]2C[C@@H](C)OC(=O)C[C@H]1OC(C)=O (stereo partly drawn) ?
A: > 100 µM

***
Q: Would you mind telling me what TGI value was observed for O=C1NC2(CCCCC2)N=C2C(Cl)CCCC12Cl (stereo not drawn) ?
A: > 100 µM

Q: Would you mind telling me what TGI value was observed for O=C1/C(=C/c2ccccc2Cl)N=C(c2ccccc2)N1Cc1ccco1 ?
A: > 100 µM

* * *

System: SNB-75 CNS
Assay: NCI tumour cell line growth inhibition, 48 h
property: TGI

These recorded examples may help you get a feel for the data.
Q: Fill in the recorded TGI for this compound, with SNB-75 CNS as test system: O=C1c2ccccc2-c2nc(-c3cccnc3)cc3c2c1nc1ccccc13
A: > 100 µM

Q: Fill in the recorded TGI for this compound, with SNB-75 CNS as test system: O=C(OCCOCBr)c1ccccc1
A: > 100 µM

Q: Fill in the recorded TGI for this compound, with SNB-75 CNS as test system: CN1C(c2ccccc2)=CC(=O)C(O)=C(c2ccccc2)S1(=O)=O
A: > 100 µM

Q: Fill in the recorded TGI for this compound, with SNB-75 CNS as test system: O=C(Nc1ccc(Br)cc1)Nc1n[nH]c2ccccc12
A: > 82.7 µM

Could you now consider this next compound?
Q: Fill in the recorded TGI for this compound, with SNB-75 CNS as test system: CN1CCN(c2ccc3c4c(cccc24)C(=O)N(CCN2CCN(CCCN4CCN(CCN5C(=O)c6cccc7c(N8CCN(C)CC8)ccc(c67)C5=O)CC4)CC2)C3=O)CC1
A: 14.1 µM

* * *

Test system: K-562 leukemia
Experiment: NCI tumour cell line growth inhibition, 48 h
property: TGI

These recorded examples may help you get a feel for the data.
Q: Would you mind telling me what TGI value was observed for CC(C)=CCc1c(O)cc(/C=C/c2cc(O)c3c(c2)C[C@@H]2C(C)(C)[C@H](O)[C@H](O)C[C@@]2(C)O3)cc1O ?
A: > 9.25 µM

Q: Would you mind telling me what TGI value was observed for O=C1NC2(CCCCC2)N=C2C(Cl)CCCC12Cl (centres undefined) ?
A: > 100 µM

Q: Would you mind telling me what TGI value was observed for COc1ccc(O)c(C(=O)c2ccc(C(=O)O[C@@H]3CCCNC[C@H]3NC(=O)c3ccncc3)cc2)c1F ?
A: > 25 µM

Could you now consider this next molecule?
Q: Would you mind telling me what TGI value was observed for O=c1[nH]c(Br)nc2c(Br)c[nH]c12 ?
A: > 100 µM

* * *

TGI values for the molecules below.
System: CAKI-1 renal
Assay: NCI tumour cell line growth inhibition, 48 h

Q: Would you mind telling me what TGI value was observed for Cc1ccc(C(=O)C(C)N)cc1 (centres undefined) ?
A: > 100 µM

Q: Would you mind telling me what TGI value was observed for COC(=O)C1=Nc2c(C)nn(-c3ccccc3)c2N=C(c2ccc(C)cc2)C1 ?
A: > 10 µM

***
Q: Would you mind telling me what TGI value was observed for CCOc1ccccc1/C=C1\NC(=O)N(/C=C2\C(=O)Oc3ccccc3C2=O)C1=O ?
A: > 100 µM

Q: Would you mind telling me what TGI value was observed for O=C(CN1CCN(C(=O)OCc2ccccc2)CCN(CC(=O)N2CCCCC2)CCN(C(=O)OCc2ccccc2)CC1)N1CCCCC1 ?
A: 28.9 µM

Q: Would you mind telling me what TGI value was observed for CC(=O)N1CC2Nc3ccccc3C2CC1CO (centres undefined) ?
A: > 100 µM

Q: Would you mind telling me what TGI value was observed for COc1ccc2c(c1)c(C1(c3cn(C)c4ccc(OC)cc34)C(=O)Nc3ccc(F)cc31)cn2C ?
A: 45.3 µM

Q: Would you mind telling me what TGI value was observed for COc1ccc(-c2n[nH]nc2-c2csc3ccccc23)cc1OC ?
A: 34.2 µM

Q: Would you mind telling me what TGI value was observed for CC(ONC(=O)c1cc(C(F)(F)F)cc(C(F)(F)F)c1)C(=O)Nc1ccc(Cl)cc1 (centres undefined) ?
A: > 76.6 µM

Q: Would you mind telling me what TGI value was observed for O=C(Nc1c(-c2nc3ccccc3[nH]2)sc(=S)n1-c1ccccc1)c1ccccc1 ?
A: > 100 µM
